Reported Is compound selective in assay? Pb ODA active? values, P. berghei ookinete development.
MEASUREMENT_LABEL: Is compound selective in assay? Pb ODA active?

1. COc1cc(F)c2ncc(Cl)c(CCN3CCC(NCc4ccc5c(c4)NC(=O)CO5)CC3)c2c1.Cl : 1 (key: 1: YES; 0: NO)
2. Cc1[nH]c(C)c(-c2ccc(Oc3ccc(OC(F)(F)F)cc3)cc2)c(=O)c1Br : 0 (key: 1: YES; 0: NO)
3. COc1ccc2nc3cc(Cl)ccc3c(NCc3ccccc3)c2c1.Cl : 1 (key: 1: YES; 0: NO)
4. CCOC(=O)N1CCN(CCCCNc2c3ccc(Cl)cc3nc3ccc(OC)cc23)CC1.Cl : 0 (key: 1: YES; 0: NO)
5. CC(=O)Oc1c(Cl)c(C)nc(C)c1-c1ccc(Oc2ccc(Cl)cc2)cc1 : 1 (key: 1: YES; 0: NO)
6. COc1ccc2nc3cc(Cl)ccc3c(NCCN(C)C)c2c1 : 0 (key: 1: YES; 0: NO)
7. Cc1noc(C)c1-c1ccc2c(Nc3ccc(C#N)cc3)c(C(N)=O)cnc2c1 : 1 (key: 1: YES; 0: NO)
8. Br.CC[C@H]1CN2CCc3cc(OC)c(OC)cc3[C@@H]2C[C@@H]1C[C@H]1NCCc2c1cc(OC)c(O)c2I : 1 (key: 1: YES; 0: NO)
9. Br.COc1ccc(CC(C)CON2C(N)=NC(N)=NC2(C)C)cc1 (stereo not shown) : 0 (key: 1: YES; 0: NO)
10. CC(=O)c1ccc(Nc2c(C(N)=O)cnc3cc(-c4c(C)noc4C)ccc23)cc1 : 1 (key: 1: YES; 0: NO)
11. COc1ccc2nc3cc(Cl)ccc3c(NCCO)c2c1.Cl : 1 (key: 1: YES; 0: NO)
12. CCCCCCCc1c(C)nc2cc(OC)ccc2c1O [TCMDC-137173, endochin] : 1 (key: 1: YES; 0: NO)
13. O=c1c2c([nH]c3cc(Cl)ccc13)CCCC2 : 1 (key: 1: YES; 0: NO)
14. CNC(=O)c1cc(F)c(F)cc1Nc1nc(Nc2cccc(CS(C)(=O)=O)c2)ncc1Cl.O=CO : 1 (key: 1: YES; 0: NO)
15. COc1ccc2nc3cc(Cl)ccc3c(NCCCN3CCNCC3)c2c1.Cl : 0 (key: 1: YES; 0: NO)
16. Cc1cccc2nc(-c3ccc(-c4ccc(CN5CC(C)OC(C)C5)cc4)cc3)[nH]c12.O=C(O)C(F)(F)F (stereo not shown) : 1 (key: 1: YES; 0: NO)
17. Br.CC1(C)NC(N)=NC(=N)N1OCCCOc1ccccc1Cl : 0 (key: 1: YES; 0: NO)
18. COc1cc(F)c2ncc(Cl)c(CCN3CCC(NCc4ccc5c(n4)NC(=O)CO5)CC3)c2c1.Cl : 1 (key: 1: YES; 0: NO)
19. Cc1[nH]c(C)c(-c2ccc(S(=O)(=O)c3ccc(Cl)cc3)cc2)c(=O)c1Br : 1 (key: 1: YES; 0: NO)
20. Br.CC(CCON1C(N)=NC(N)=NC1(C)C)c1ccc(Cl)cc1 (stereo not shown) : 0 (key: 1: YES; 0: NO)
21. O=C(NC1CCN(CC2(c3ccccc3F)CCCC2)CC1)c1ccn[nH]1 : 1 (key: 1: YES; 0: NO)
22. CS(=O)(=O)Cc1ccc(Nc2ncc(Cl)c(Nc3cccnc3C(N)=O)n2)cc1.Cl : 1 (key: 1: YES; 0: NO)
23. Cc1cc(=O)c(-c2ccc(Oc3cccc(C(F)(F)F)c3)cc2)c(C)[nH]1 : 1 (key: 1: YES; 0: NO)
24. Cc1[nH]c(C)c(-c2ccc(Oc3cccc(OC(F)(F)F)c3)cc2)c(=O)c1Cl : 1 (key: 1: YES; 0: NO)
25. CC1CN(Cc2ccccc2)CCN1c1ccc(NC(=O)c2cccs2)cc1.O=C(O)C(F)(F)F (stereo not shown) : 1 (key: 1: YES; 0: NO)
26. Cl.Oc1cc(-c2nc(-c3ccccc3)[nH]c2-c2ccncc2)ccc1Cl : 0 (key: 1: YES; 0: NO)
27. CN(C)c1ccc(C=Cc2nc(=O)c3ccccc3o2)cc1 : 1 (key: 1: YES; 0: NO)
28. Br.CC1(C)NC(N)=NC(=N)N1OCCSc1ccc(Cl)c(Cl)c1 : 0 (key: 1: YES; 0: NO)
29. O=c1nc(C=Cc2ccc(Br)cc2)oc2ccccc12 : 1 (key: 1: YES; 0: NO)
30. COc1ccc2c(=O)c3ccc(OC)cc3[nH]c2c1 : 1 (key: 1: YES; 0: NO)
31. Cc1[nH]c(C)c(-c2ccc(-c3ccc(OC(F)(F)F)cc3)cc2)c(=O)c1Br : 1 (key: 1: YES; 0: NO)
